Where these numbers come from: the NIST ThermoML archive (doi:10.1021/je030236t)

- condition label: 440 K; Liquid
observed property: vapor or sublimation pressure (kPa)

1. CCCCCCCCCCCCCCCCCCCCCCCCCCCCCCCCCC [tetratriacontane]: 0.000263
2. CCCCCCCCCCCCCCCCCCCCCCCCCCCCCCC [hentriacontane]: 0.00122
3. CCCCCCCCCCCCCCCCCCCCCCCCCCCCCCCC [dotriacontane]: 0.000729
4. CCCCCCCCCCCCCCCCCCCCCCCCCCCCCCCCCCC [pentatriacontane]: 0.000158
5. CCCCCCCCCCCCCCCCCCCCCCCCCCCCCCCCC [tritriacontane]: 0.000439
6. CCCCCCCCCCCCCCCCCCCCCCCCCCCCCCCCCCCC [hexatriacontane]: 9.96e-05
7. CCCCCCCCCCCCCCCCCCCCCCCCCCCCCCCCCCCCC [heptatriacontane]: 5.96e-05
8. CCCCCCCCCCCCCCCCCCCCCCCCCCCCCCCCCCCCCC [octatriacontane]: 3.68e-05

* * *

- condition label: 580 K; Liquid
Decide using vapor or sublimation pressure: a value greater than or equal to 0.9 kPa is MET, a smaller one is NOT MET.

1. CCCCCCCCCCCCCCCCCCCCCCCCCCCCCCCCCCCC: NOT MET
2. CCCCCCCCCCCCCCCCCCCCCCCCCCCCCCCCCC: NOT MET
3. CCCCCCCCCCCCCCCCCCCCCCCCCCCCCCCCC: MET
4. CCCCCCCCCCCCCCCCCCCCCCCCCCCCCCCCCCCCC: NOT MET
5. CCCCCCCCCCCCCCCCCCCCCCCCCCCCCCCCCCCCCC: NOT MET
6. CCCCCCCCCCCCCCCCCCCCCCCCCCCCCCC: MET
7. CCCCCCCCCCCCCCCCCCCCCCCCCCCCCCCC: MET
8. CCCCCCCCCCCCCCCCCCCCCCCCCCCCCCCCCCC: NOT MET

* * *

vapor or sublimation pressure values, listed per item
- condition label: 380 K; Liquid
observed property: vapor or sublimation pressure (kPa)

1. CCCCCCCCCCCCCCCCCCCCCCCCCCCCCCCCCCCC: 1.42e-07
2. CCCCCCCCCCCCCCCCCCCCCCCCCCCCCCCCCCCCC: 7.09e-08
3. CCCCCCCCCCCCCCCCCCCCCCCCCCCCCCC: 4.3e-06
4. CCCCCCCCCCCCCCCCCCCCCCCCCCCCCCCCCC: 5.34e-07
5. CCCCCCCCCCCCCCCCCCCCCCCCCCCCCCCCC: 1.07e-06
6. CCCCCCCCCCCCCCCCCCCCCCCCCCCCCCCCCCC: 2.64e-07
7. CCCCCCCCCCCCCCCCCCCCCCCCCCCCCCCCCCCCCC: 3.67e-08
8. CCCCCCCCCCCCCCCCCCCCCCCCCCCCCCCC: 2.14e-06

* * *

- condition label: 430 K; Liquid
observed property: vapor or sublimation pressure (kPa)

1. CCCCCCCCCCCCCCCCCCCCCCCCCCCCCCCCCCCCC: 2.31e-05
2. CCCCCCCCCCCCCCCCCCCCCCCCCCCCCCCCC: 0.000189
3. CCCCCCCCCCCCCCCCCCCCCCCCCCCCCCC: 0.00055
4. CCCCCCCCCCCCCCCCCCCCCCCCCCCCCCCC: 0.000321
5. CCCCCCCCCCCCCCCCCCCCCCCCCCCCCCCCCCC: 6.42e-05
6. CCCCCCCCCCCCCCCCCCCCCCCCCCCCCCCCCCCC: 3.96e-05
7. CCCCCCCCCCCCCCCCCCCCCCCCCCCCCCCCCC: 0.00011
8. CCCCCCCCCCCCCCCCCCCCCCCCCCCCCCCCCCCCCC: 1.39e-05

* * *

Recorded measurements of vapor or sublimation pressure, one per entry
- condition label: 560 K; Liquid
observed property: vapor or sublimation pressure (kPa)

1. CCCCCCCCCCCCCCCCCCCCCCCCCCCCCCCCCCCCC: 0.159
2. CCCCCCCCCCCCCCCCCCCCCCCCCCCCCCCCCCC: 0.284
3. CCCCCCCCCCCCCCCCCCCCCCCCCCCCCCCCCC: 0.379
4. CCCCCCCCCCCCCCCCCCCCCCCCCCCCCCCCCCCC: 0.216
5. CCCCCCCCCCCCCCCCCCCCCCCCCCCCCCCCC: 0.511
6. CCCCCCCCCCCCCCCCCCCCCCCCCCCCCCC: 0.925
7. CCCCCCCCCCCCCCCCCCCCCCCCCCCCCCCCCCCCCC: 0.12
8. CCCCCCCCCCCCCCCCCCCCCCCCCCCCCCCC: 0.687

* * *

molecules and their reported vapor or sublimation pressure
- condition label: 510 K; Liquid
observed property: vapor or sublimation pressure (kPa)

1) CCCCCCCCCCCCCCCCCCCCCCCCCCCCCCCCC [tritriacontane]: 0.0474
2) CCCCCCCCCCCCCCCCCCCCCCCCCCCCCCC [hentriacontane]: 0.0989
3) CCCCCCCCCCCCCCCCCCCCCCCCCCCCCCCCCCCC [hexatriacontane]: 0.0163
4) CCCCCCCCCCCCCCCCCCCCCCCCCCCCCCCCCCC [pentatriacontane]: 0.0228
5) CCCCCCCCCCCCCCCCCCCCCCCCCCCCCCCCCC [tetratriacontane]: 0.0328
6) CCCCCCCCCCCCCCCCCCCCCCCCCCCCCCCCCCCCC [heptatriacontane]: 0.0112
7) CCCCCCCCCCCCCCCCCCCCCCCCCCCCCCCCCCCCCC [octatriacontane]: 0.00791
8) CCCCCCCCCCCCCCCCCCCCCCCCCCCCCCCC [dotriacontane]: 0.0684

* * *

- condition label: 298.15 K; Liquid
± gives the expanded uncertainty stated by the source.
# key: entry, value: vapor or sublimation pressure
observed property: vapor or sublimation pressure

1. CCCCCCCCCCCCCCCCCCCCCCCCCCCCCCCCCCCCCC: 5.13e-15 ± 1.5e-15 kPa
2. CCCCCCCCCCCCCCCCCCCCCCCCCCCCCCCC: 3.62e-12 ± 7.3e-13 kPa
3. CCCCCCCCCCCCCCCCCCCCCCCCCCCCCCCCC: 1.19e-12 ± 2.4e-13 kPa
4. CCCCCCCCCCCCCCCCCCCCCCCCCCCCCCCCCCCC: 4.51e-14 ± 1.4e-14 kPa
5. CCCCCCCCCCCCCCCCCCCCCCCCCCCCCCC: 1.11e-11 ± 2.2e-12 kPa
6. CCCCCCCCCCCCCCCCCCCCCCCCCCCCCCCCCCC: 1.22e-13 ± 3.7e-14 kPa
7. CCCCCCCCCCCCCCCCCCCCCCCCCCCCCCCCCCCCC: 1.49e-14 ± 4.5e-15 kPa
8. CCCCCCCCCCCCCCCCCCCCCCCCCCCCCCCCCC: 3.83e-13 ± 7.7e-14 kPa

* * *

We begin with a simple list: items and their reported vapor or sublimation pressure.
- condition label: 340 K; Liquid
observed property: vapor or sublimation pressure (kPa)

1. CCCCCCCCCCCCCCCCCCCCCCCCCCCCCCCCCCCCC: 1.26e-10
2. CCCCCCCCCCCCCCCCCCCCCCCCCCCCCCCCCCCC: 3e-10
3. CCCCCCCCCCCCCCCCCCCCCCCCCCCCCCCCC: 3.79e-09
4. CCCCCCCCCCCCCCCCCCCCCCCCCCCCCCCCCCC: 6.52e-10
5. CCCCCCCCCCCCCCCCCCCCCCCCCCCCCCCC: 8.99e-09
6. CCCCCCCCCCCCCCCCCCCCCCCCCCCCCCCCCCCCCC: 5.54e-11
7. CCCCCCCCCCCCCCCCCCCCCCCCCCCCCCC: 2.15e-08
8. CCCCCCCCCCCCCCCCCCCCCCCCCCCCCCCCCC: 1.58e-09

* * *

Reported vapor or sublimation pressure values for the following molecules.
- condition label: 540 K; Liquid
observed property: vapor or sublimation pressure (kPa)

1. CCCCCCCCCCCCCCCCCCCCCCCCCCCCCCCCCCCCC: 0.0598
2. CCCCCCCCCCCCCCCCCCCCCCCCCCCCCCC: 0.406
3. CCCCCCCCCCCCCCCCCCCCCCCCCCCCCCCCCC: 0.154
4. CCCCCCCCCCCCCCCCCCCCCCCCCCCCCCCC: 0.294
5. CCCCCCCCCCCCCCCCCCCCCCCCCCCCCCCCCCCC: 0.0834
6. CCCCCCCCCCCCCCCCCCCCCCCCCCCCCCCCCCCCCC: 0.0441
7. CCCCCCCCCCCCCCCCCCCCCCCCCCCCCCCCC: 0.213
8. CCCCCCCCCCCCCCCCCCCCCCCCCCCCCCCCCCC: 0.112

* * *

- condition label: 520 K; Liquid
observed property: vapor or sublimation pressure (kPa)

1) CCCCCCCCCCCCCCCCCCCCCCCCCCCCCCCCCCCCCC [octatriacontane]: 0.0145
2) CCCCCCCCCCCCCCCCCCCCCCCCCCCCCCCCCCCC [hexatriacontane]: 0.0289
3) CCCCCCCCCCCCCCCCCCCCCCCCCCCCCCC [hentriacontane]: 0.163
4) CCCCCCCCCCCCCCCCCCCCCCCCCCCCCCCCC [tritriacontane]: 0.0804
5) CCCCCCCCCCCCCCCCCCCCCCCCCCCCCCCCCCC [pentatriacontane]: 0.0399
6) CCCCCCCCCCCCCCCCCCCCCCCCCCCCCCCC [dotriacontane]: 0.114
7) CCCCCCCCCCCCCCCCCCCCCCCCCCCCCCCCCC [tetratriacontane]: 0.0564
8) CCCCCCCCCCCCCCCCCCCCCCCCCCCCCCCCCCCCC [heptatriacontane]: 0.0202
